Values from patent US20050119284A1

A set of compounds tested on MDBK cells, with measured Effect on cell growth:

cpd_smiles	Effect on cell growth
Sc1ncnc2nc[nH]c12	decreased
Nc1nc2nc[nH]c2c(=S)[nH]1	decreased
